experimental.system: T1, EsCas13d, nuclease-dead (Eubacterium siraeum, UniProt B0MS50, R295A;H300A;R849A;H854A)
T1 sequence: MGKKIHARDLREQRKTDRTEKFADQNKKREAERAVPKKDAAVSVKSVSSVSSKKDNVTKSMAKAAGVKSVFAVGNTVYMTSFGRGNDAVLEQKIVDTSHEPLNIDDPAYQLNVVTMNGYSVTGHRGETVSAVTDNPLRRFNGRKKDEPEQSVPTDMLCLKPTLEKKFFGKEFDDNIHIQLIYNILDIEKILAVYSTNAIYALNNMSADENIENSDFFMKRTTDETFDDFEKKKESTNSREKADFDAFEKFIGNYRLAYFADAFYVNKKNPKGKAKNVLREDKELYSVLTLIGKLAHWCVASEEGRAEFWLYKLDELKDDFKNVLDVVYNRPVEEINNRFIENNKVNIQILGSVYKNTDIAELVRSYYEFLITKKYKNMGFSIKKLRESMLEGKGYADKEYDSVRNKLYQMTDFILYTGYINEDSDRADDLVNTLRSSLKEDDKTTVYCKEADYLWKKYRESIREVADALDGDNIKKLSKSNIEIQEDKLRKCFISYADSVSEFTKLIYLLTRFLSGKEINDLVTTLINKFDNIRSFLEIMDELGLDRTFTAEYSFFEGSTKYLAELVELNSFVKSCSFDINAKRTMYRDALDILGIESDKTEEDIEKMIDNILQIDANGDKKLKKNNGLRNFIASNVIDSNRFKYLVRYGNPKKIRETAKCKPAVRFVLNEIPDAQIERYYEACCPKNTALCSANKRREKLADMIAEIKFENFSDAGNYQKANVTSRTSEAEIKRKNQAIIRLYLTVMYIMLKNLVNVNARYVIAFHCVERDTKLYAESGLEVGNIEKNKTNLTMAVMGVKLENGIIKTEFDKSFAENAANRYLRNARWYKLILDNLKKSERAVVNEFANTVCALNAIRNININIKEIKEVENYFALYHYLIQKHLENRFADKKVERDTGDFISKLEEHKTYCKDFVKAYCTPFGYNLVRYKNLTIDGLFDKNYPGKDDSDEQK
method.summary: crRNA (strand 1, pre-loaded); Mg2+; 40 mM Tris-HCl pH 7.5, 150 mM NaCl, 6 mM MgCl2, 1 mM DTT, 0.1% Tween-20, 0.2 mg/ml BSA; 25 C; 10 min per concentration, then washed
assay.setup: tags: His6-TwinStrep-SUMO cleaved; N-terminal SNAP kept (SNAP-Surface 488); label: 3' end held by stalled T7 RNA polymerase
measure: Kd
Provide a numeric answer, followed by its unit.

Example entries and their recorded answers appear below.
binder: target 2 MT 5'PFS GUC 3'PFS CGC (mixed) RNA 1: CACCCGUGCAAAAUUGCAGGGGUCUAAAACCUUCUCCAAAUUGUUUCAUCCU RNA 2: GGGAAUGGAUCCACAUCUACGAAUUCGUCAGGAUGAAACAAUUUGGAGAAGCGCAGAUCGGAAGAGCACACGU
Kd: 16.9 nM
--
binder: target 1 A16G (mixed) RNA 1: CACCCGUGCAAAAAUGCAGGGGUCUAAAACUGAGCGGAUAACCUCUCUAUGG RNA 2: GGGAAUGGAUCCACAUCUACGAAUUCGUACCAUAGGGAGGUUAUCCGCUCACCGAGAUCGGAAGAGCACACGU
Kd: 29.4 nM
--
binder: target 3 insA 3' of 10,insC 3' of 5 (mixed) RNA 1: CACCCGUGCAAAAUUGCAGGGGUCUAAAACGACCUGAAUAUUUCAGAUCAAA RNA 2: GGGAAUGGAUCCACAUCUACGAAUUCGUUUUUGAUCUGAAAUAAUUCACGGUCUGCAGAUCGGAAGAGCACACGU
Kd: 74.5 nM

Below: the item to evaluate.
Q: Quick one: give measured Kd for target 1 A1U,C22A (mixed) RNA 1: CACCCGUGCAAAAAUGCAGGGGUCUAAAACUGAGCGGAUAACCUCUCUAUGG RNA 2: GGGAAUGGAUCCACAUCUACGAAUUCGUAACAUAGAGAGGUUAUCCGCUCUCCGAGAUCGGAAGAGCACACGU
A: 12.1 nM
